Tested on: Methicillin resistant S. aureus ATCC 33591
measurement.protocol: MIC determination, MRSA
Format: cell-based, Staphylococcus aureus
measurement.parameters: MRSA ATCC 33591, 24 h
measurement.type: MIC MRSA

CC(O)C1ON(Cc2ccc(-c3ccc(C(C)(C)C)cc3)cc2)C(C(=O)NCCc2c[nH]c3ccccc23)C1CO (centres unmarked) : * (the MIC is >90 μg/mL)
CCCCCCN1O[C@@H]([C@H](C)O)[C@@H](CO)[C@H]1C(=O)NCCc1c[nH]c2ccccc12 : * (the MIC is >90 μg/mL)
